Assay: Toxicity liver stage against HepG2, at 10uM
Assay type: cell-based
Set-up: test concentration 10 uM, cell line HepG2-A16-CD81EGFP
Conditions: human, HepG2-A16-CD81EGFP cells; read-out: INHIBITION
endpointName: cytotoxicity at 10 µM (%)
Answers are plain numbers, in %.

In [3]: df
Out[3]:
                                   compound  resultnumber
0  Cc1ccc(C(=O)NCC2CCCCO2)c(=O)[nH]1 (centres undefined)        -0.628
1    CCOc1ccc(CC(=O)N2CCN(c3nccn3CC)CC2)cc1          11.1
2  CSCCN1C(=O)CC(C)(c2ccc(Br)cc2)C1=O (centres undefined)         -8.98
3            COc1c(Br)cccc1CCNC(=O)c1ncoc1C          3.39
4           CC(C)(C)NC(=O)c1cnc(C(C)(C)C)s1          3.72
5  Cn1cc(C2CCCN2C(=O)c2cnc(C3CC3)s2)cn1 (centres undefined)         -2.05
6  O=C(Cc1csc(-c2nnc[nH]2)n1)N1CCCC1Cn1cccn1 (centres undefined)         -2.48
7  CN(C(=O)Cn1nc(-c2ccc(Br)cc2)ccc1=O)C1CCS(=O)(=O)C1 (centres undefined)          4.38
8    Cc1cc(N(C)Cc2c(C)noc2C)n2nc(C)c(C)c2n1          5.44
9  CN(C)CCN(Cc1ccccn1)Cc1ccnn1C1CCCCO1 (centres undefined)           1.6

Give me cytotoxicity at 10 µM for each of these compounds, listed below.
1. CC(C)N1CCC(N2CCC(C(=O)N(C)C)CC2)CC1
2. Cc1ccc(C(=O)N(C)CC(=O)NCC(F)(F)F)cn1
3. CC(C)COC(=O)N1CC(=O)N(CCCc2ccccc2)CC(O)C1 (centres undefined)
4. CNC(=O)C1(c2cnccn2)CCCN1C(=O)c1cccc(F)c1 (centres undefined)
5. CC(=O)N1CCN(Cc2c(C)sc3ccccc23)CC(O)C1 (centres undefined)
6. CC(=O)c1ccc(N2CCC3(CCC(=O)N(C4CC4)C3)CC2)nc1
7. CCn1c(CN(C)CC(=O)N(C)C)nc2c(F)cccc21

result:
[4.71, -4.46, 0.853, -29.6, 14.4, 4.36, -4.36]
